method: Cytotoxicity against HEK293T cells assessed as inhibition of cell growth incubated for 72 hrs by MTT assay
Type: toxicity, cell-based, HEK-293T
condition.set: human
The entries below are paired with their reported IC50 at 72 h.
outcome.measure: IC50 at 72 h

1) C[C@@H](N(C)Cc1ccc(C#Cc2ccc(F)cc2F)cc1)[C@](O)(Cn1cncn1)c1ccc(F)cc1F ... > 10 µM
2) CN(Cc1ccc(I)cc1)CC(O)(Cn1cncn1)c1ccc(F)cc1F (stereo not drawn) ... > 10 µM
3) OC(Cn1cncn1)(Cn1cncn1)c1ccc(F)cc1F ... > 40 µM

----------
method: Cmax in Sprague-Dawley rat at 3 mg/kg, iv by LC-MS/MS analysis
Type: ADME, organism-based
condition.set: in vivo
outcome.measure: Cmax (ng/mL)

1) C[C@@H](N(C)Cc1ccc(C#Cc2ccc(F)cc2F)cc1)[C@](O)(Cn1cncn1)c1ccc(F)cc1F ... 2460

----------
The entries below are paired with their reported half-life.
method: Metabolic stability in human liver microsomes assessed as half-life preincubated for 10 mins followed by NADPH addition and measured after 60 mins by LC-MS/MS analysis
Type: ADME, Microsome
condition.set: time 70 min
outcome.measure: half-life (min)

1. CN(Cc1ccc(C#Cc2ccccc2)cc1)CC(O)(Cn1cncn1)c1ccc(F)cc1F (centres undefined) ... 4.39
2. CN(Cc1ccc(C#Cc2ccc(F)cc2F)cc1)CC(O)(Cn1cncn1)c1ccc(F)cc1F (centres undefined) ... 26.3
3. C[C@@H](N(C)Cc1ccc(C#Cc2ccc(F)cc2F)cc1)[C@](O)(Cn1cncn1)c1ccc(F)cc1F ... 30.2
4. CN(Cc1ccc(I)cc1)CC(O)(Cn1cncn1)c1ccc(F)cc1F (centres undefined) ... 20.4

----------
method: MRT(0 to t) in Sprague-Dawley rat at 3 mg/kg, iv by LC-MS/MS analysis
Assay type: ADME, organism-based
condition.set: in vivo
outcome.measure: MRT last (h)

1) C[C@@H](N(C)Cc1ccc(C#Cc2ccc(F)cc2F)cc1)[C@](O)(Cn1cncn1)c1ccc(F)cc1F ... 1.92

----------
method: AUC (0 to infinity) in Sprague-Dawley rat at 3 mg/kg, iv by LC-MS/MS analysis
Type: ADME, organism-based
condition.set: in vivo
outcome.measure: AUC(0-inf) (ng·h/mL)

1. C[C@@H](N(C)Cc1ccc(C#Cc2ccc(F)cc2F)cc1)[C@](O)(Cn1cncn1)c1ccc(F)cc1F ... 1830

----------
method: Half-life in Sprague-Dawley rat at 10 mg/kg, po by LC-MS/MS analysis
Format: ADME, organism-based
condition.set: in vivo
outcome.measure: half-life (min)

1) C[C@@H](N(C)Cc1ccc(C#Cc2ccc(F)cc2F)cc1)[C@](O)(Cn1cncn1)c1ccc(F)cc1F ... 245

----------
method: Clearance in Sprague-Dawley rat at 3 mg/kg, iv by LC-MS/MS analysis
Format: ADME, organism-based
condition.set: in vivo
outcome.measure: clearance

1. C[C@@H](N(C)Cc1ccc(C#Cc2ccc(F)cc2F)cc1)[C@](O)(Cn1cncn1)c1ccc(F)cc1F ... 27.5 mL/min/kg

----------
method: Oral bioavailability in Sprague-Dawley rat at 10 mg/kg by LC-MS/MS analysis
Format: ADME, organism-based
condition.set: in vivo
outcome.measure: bioavailability (%)

1) C[C@@H](N(C)Cc1ccc(C#Cc2ccc(F)cc2F)cc1)[C@](O)(Cn1cncn1)c1ccc(F)cc1F ... 26.3
